Test system: HL-60
Experiment: Cytotoxicity against human HL60 cells by MTT assay
Type: functional, cell-based
Parameter: IC50

# annotated cases, reported IC50 shown
# Molecule, Result
rows = [
    ("COC/C=C1\\CN2[C@H]3C[C@@H]1[C@@H]1COC4=Nc5cc6c(c(O[C@@H]7O[C@H](CO)[C@@H](O)[C@H](O)[C@H]7O)c5[C@@]43C[C@@H]12)OCO6", "> 40 µM"),
    ("COc1cc(OC)c2c(c1)[C@@]13C[C@H]4[C@@H](COC1=N2)[C@H]1C[C@@H]3N4C/C1=C\\CO", "> 40 µM"),
    ("C/C=C1/C[N+]2([O-])[C@H]3C[C@@]45C(=Nc6cc7c(c(OC)c64)OCO7)OC[C@H]3[C@H]1C[C@@H]52", "> 40 µM"),
    ("COC/C=C1\\C[N+]2([O-])[C@H]3C[C@@]45C(=Nc6cc7c(c(OC)c64)OCO7)OC[C@H]3[C@H]1C[C@@H]52", "> 40 µM"),
    ("COc1c2c(cc3c1[C@@]14C[C@H]5[C@@H](COC1=N3)[C@H]1C[C@@H]4N5C/C1=C\\CO)OCO2", "> 40 µM"),
]

IC50 for "C/C=C1/CN2[C@H]3C[C@@H]1[C@@H]1COC4=Nc5c(OC)cc(OC)cc5[C@@]43C[C@@H]12" is > 40 µM

IC50 for C/C=C1/C[N+]2([O-])CC[C@]34C=C(CO)[C@H]1C[C@@]32Nc1ccccc14 (stereo partly drawn) is > 40 µM

IC50 for "C/C=C1/CN2[C@H]3C[C@@H]1[C@@H]1COC4=Nc5c(cc(OC)c(OC)c5OC)[C@@]43C[C@@H]12" is > 40 µM
